- System: Salmonella enterica typhimurium
- procedure summary: growth AUC normalised to DMSO control (fraction of control); higher = less growth inhibition, active = hit call of the paper
- condition details: 20 µM
Structures can show the parent of a compound that is named as a salt.
measured parameter: growth AUC normalised to DMSO control
// response body must contain only the number

{"compound": "CNNCc1ccc(C(=O)NC(C)C)cc1 [Procarbazine hydrochloride]", "growth AUC normalised to DMSO control": 1}
{"compound": "C#C[C@]1(O)CC[C@H]2[C@@H]3CCc4cc(O)ccc4[C@H]3CC[C@@]21C [Ethinylestradiol]", "growth AUC normalised to DMSO control": 0.985}

Query string: Given CCN(CC)CCNC(=O)COc1ccc(OC)cc1 [Mefexamide hydrochloride] , state its recorded growth AUC normalised to DMSO control.
Result string: 1

Query string: Queued: CC(=O)SCC(Cc1ccccc1)C(=O)NCC(=O)OCc1ccccc1 (configuration not stated) [Racecadotril]
Result string: 1

Query string: Queued: CN(Cc1ccc(C(C)(C)C)cc1)Cc1cccc2ccccc12 [Butenafine hydrochloride]
Result string: 0.974

Query string: Queued: CN(C(=O)C(Cl)Cl)c1ccc(OC(=O)c2ccco2)cc1 [Diloxanide furoate]
Result string: 0.998

Query string: Queued: CC(C)(Oc1ccc(CCNC(=O)c2ccc(Cl)cc2)cc1)C(=O)O [Bezafibrate]
Result string: 0.976

Query string: Queued: COc1ccc2c3c1O[C@H]1C[C@@H](O)C=C[C@@]31CCN(C)C2 [Galanthamine hydrobromide]
Result string: 0.995

Query string: Queued: O=C(O)[C@H]1/C(=C/CO)O[C@@H]2CC(=O)N21 [Clavulanate potassium salt]
Result string: 1.01

Query string: Queued: CN1C(=O)OC(C)(C)C1=O [Trimethadione]
Result string: 0.996

Query string: Queued: CC12CC3CC(C)(C1)CC(N)(C3)C2 [Memantine hydrochloride]
Result string: 0.997

Query string: Queued: NS(=O)(=O)Cc1noc2ccccc12 [Zonisamide]
Result string: 1.01

Query string: Queued: CN(CCOc1ccc(CC2SC(=O)NC2=O)cc1)c1ccccn1 (configuration not stated) [Rosiglitazone hydrochloride]
Result string: 1.02
